Values from PubChem BioAssay (NCI)

- System: UACC-62 melanoma
- Test details: NCI tumour cell line growth inhibition, 48 h
Assay readout: TGI

Completed entries (count: 8):
COc1ccc(Cc2nc3cc([N+](=O)[O-])ccc3n2C[C@@H]2CCCN3CCCCC23)cc1 (stereo partly specified); 31.3 µM
CCC1(O)C(=O)OCc2c1cc1n(c2=O)Cc2cc3ccc(CO)cc3nc2-1 (stereo unspecified); 7.34 µM
CC1(C(=O)O)CCC(C(=O)O)C(C)(C)O1 (stereo unspecified); > 100 µM
CCN(CC)c1ccc2c(cc1=O)[C@@H](NC(C)=O)CCc1cc(OC)c(OC)c(OC)c1-2; > 100 µM
CC(=O)/C=C\C1CC2C=CC1C2 (stereo unspecified); > 100 µM
CC(C)=NNc1ncnc2c1ncn2C1OC(CO)C(O)C1O (stereo unspecified); 9.3 µM
COC(=O)C(CCC1CC(OC)N(C(=O)OCc2ccccc2)C1)N=Cc1ccccc1 (stereo unspecified); > 100 µM
CN(C)CCNC(=O)c1cc([N+](=O)[O-])cn1C; > 100 µM

Please report TGI for every entry that follows.
1. FC(F)(F)c1ccc(CNc2ccc(Cc3c[nH]c4ncc(Cl)cc34)cn2)cn1
2. COC1/C=C/C(C)C(OC)CC(O)/C=C/C(C)C(C(C)C(OC)C(C)CCC(=O)C(C)C(C/C=C/N(C)C=O)OC)OC(=O)/C=C/C=C(\C)CC(OC)CC2=CC(=O)O[C@@H](C(C)C(OC)C1)[C@H]2O (stereo partly specified)
3. O=C(O)CC1OCC=C2C[N+]3([O-])CCC45c6ccccc6NC4C1C2CC53 (stereo unspecified)
4. COc1cc(-c2nn(-c3ccc(NC(=O)NCCCNC(=O)c4ccccc4)cc3)cc2-c2ccncc2)ccc1Cl
5. CC(C)(C)C(=O)CC1(O)C=C(O)C(O)(CC(=O)C(C)(C)C)O1 (stereo unspecified)
6. O=C(O)CCC(NC(=O)c1ccc(Nc2nc3ccc(C(F)(F)F)cc3nc2-c2ccccc2)cc1)C(=O)O (stereo unspecified)
7. Nc1c(C(=O)Nc2ccccn2)sc2nc3c(cc12)CCCCC3
8. CCCCOC(=O)NC(c1ccccc1)C(O)C(=O)OC1C[C@@]2(O)C(OC(=O)c3ccccc3)C3[C@](C)(C(=O)[C@H](OC(C)=O)C(=C1C)C2(C)C)[C@@H](O)C[C@H]1OC[C@@]31OC(C)=O (stereo partly specified)

25 µM
0.504 µM
> 100 µM
3.48 µM
97.1 µM
> 100 µM
> 50 µM
> 10 µM

###

- Test system: LOX IMVI melanoma
- Test details: NCI tumour cell line growth inhibition, 48 h
Exercise: for every item that follows, state its recorded TGI.

O=c1[nH]c2ccc(N=Cc3c(O)[nH]c4ccccc34)cc2[nH]1; > 25 µM
c1ccc(CSc2nnc3c4c5c(sc4nc(-c4cccnc4)n23)CCCCCC5)cc1; 11.1 µM
COC(=O)C1=C(c2cc(OC)c(OC)c(OC)c2)OC(c2ccc3c(c2)OCO3)C1 (stereo unspecified); > 100 µM
CN(C)c1ccc(/C=N/N=C2\C(=O)Nc3c(Cl)cc(Cl)cc32)cc1; > 100 µM
Cn1c(/C=C/CO)c(CO)c2c1C(=O)C=C(N1CC1)C2=O; 0.0102 µM

Turning to the following compound.
Reported TGI for LOX IMVI melanoma, given O=C(CC(Cl)(Cl)C(Cl)(Cl)Cl)c1ccccc1 ? 3.74 µM
